Source: ChEMBL document CHEMBL1201862

Test system: HL-60
test_details: NCI tumour cell line growth inhibition, 48 h
The source made the active and inactive calls. Cut-off read from the data, not from the text of the source: active = GI50 up to about 1.1 µM and inactive = higher.
Labels: active, inactive

compound="Clc1ccccc1-c1nc(-c2ccncc2)no1 [PIFEXOLE]" classification=inactive
compound=CSc1ccc(C=C2N=C(c3ccccc3)N(c3cc(C(=O)c4ccccc4)ccc3N3C(=O)/C(=C/c4ccc(SC)cc4)N=C3c3ccccc3)C2=O)cc1 classification=inactive
compound=FC(F)(F)c1nc(-c2ccccc2Cl)[nH]c1C(F)(F)F classification=active
compound=COc1ccc(N2C(=O)C(=O)N(C)C2=O)c2ccccc12 classification=inactive
compound=CC1(C)Cc2nnsc2C2=C1C(=O)CCS2 classification=inactive
compound="CC(=O)OC1C2CCC3CC2C2(SCCS2)C31 (stereo unspecified)" classification=inactive
compound="CC(C)OC(=O)C(NC(=O)C(CC(=O)OCc1ccccc1)NC(=O)OCc1ccccc1)NC(=O)C1C(C)(C)CCC1(C)C (stereo unspecified)" classification=inactive
compound=CN(C)CCNc1ccc(NCC[N+](C)(C)Cc2ccc([N+](=O)[O-])cc2)c2c1C(=O)c1ccccc1C2=O classification=inactive
compound=COC(=O)CN1c2nc(C#N)c(C#N)nc2N(CC(=O)OC)c2nc(C#N)c(C#N)nc21 classification=inactive
compound=O=c1oc2ccccc2cc1-c1nc2ccc([N+](=O)[O-])cc2o1 classification=inactive
compound="CCC(=O)OC1CCn2c1nc1c2C(=O)C(C)=C(N2CC2)C1=O (stereo unspecified)" classification=active
compound="COc1ccc(/C=C2\\SC(c3ccc(OC)cc3)N(NC(=O)Cc3ccccc3)C2=O)cc1 (stereo unspecified)" classification=inactive
compound=COC(=O)c1ccccc1/C=C1/Cc2cccc(C)c2C1=O classification=inactive
compound="COC(=O)C(C(=O)c1ccccc1)C(C(=O)C(=O)Nc1ccc(OC)cc1OC)C(=O)C(=O)c1ccc(C)cc1 (stereo unspecified)" classification=inactive
compound="CC12CCC(C(=O)n3c1nc1ccccc13)C(C)(C)O2 (stereo unspecified)" classification=inactive
compound="C[C@@]1(O)CC[C@]2(C)C3CCCC3[C@H]12 (stereo partly specified)" classification=inactive
compound="C=C1C(=O)CC2C(=O)C(C)(O)CC/C=C(\\C)C(=O)CC12 (stereo unspecified)" classification=inactive
compound="O=C1NC(c2ccccc2Cl)Nc2ccccc21 (stereo unspecified)" classification=inactive
compound="[N-]=[N+]=CC(=O)C1CCN(c2ccccc2)C1=O (stereo unspecified)" classification=inactive
compound=COc1cccc2cc(C(=O)Nc3ccccn3)c(=N)oc12 classification=inactive
compound=Ic1ccc2c(c1)N(c1ccccc1)c1cc([N-]c3ccc4nc5ccc(I)cc5[n+](-c5ccccc5)c4c3)ccc1N2 classification=inactive

====

Test system: SK-MEL-2
test_details: NCI tumour cell line growth inhibition, 48 h
Calls of active or inactive are those of the source. Cut-off read from the data, not from the text of the source: active = GI50 up to about 1.1 µM and inactive = higher.
Below, each entry is listed alongside its reported GI50.
measurement_label: GI50

molecule=C=CCSC1=N/C(=C\c2cccs2)C(=O)N1CC=C target_under_test=SK-MEL-2 result="> 100 µM (inactive)"
molecule=Nc1ccc2c3[nH]c4cc(N)ccc4cc-3nc2c1 target_under_test=SK-MEL-2 result="0.413 µM (active)"
molecule="O=c1[nH]c(=O)n(C2OC(CO)C(O)C2O)c2nc(-c3ccc(-c4ccccc4)cc3)cnc12 (stereo unspecified)" target_under_test=SK-MEL-2 result="> 100 µM (inactive)"
molecule=O=c1c2cc(Cl)ccc2n2nnc3ccc(NCCNCCO)c1c32 target_under_test=SK-MEL-2 result="2.09 µM (inactive)"
molecule=NCCCC[C@H](N)C(=O)Nc1ccc(-c2nc3ccccc3s2)cc1 target_under_test=SK-MEL-2 result="29.1 µM (inactive)"
molecule=CC(C)Nc1[nH]c(C(=O)c2ccccc2)c(N)c1C(=S)Nc1ccccc1 target_under_test=SK-MEL-2 result="23.8 µM (inactive)"
